- System: HL-60(TB) leukemia
- ASSAY REMARKS: NCI tumour cell line growth inhibition, 48 h; in the data active = GI50 below about 0.43 µM; inactive = the rest
Outcomes: class 1 = active, class 0 = inactive

COMPOUND | GROUP
Nc1ccccc1NC(=O)c1ccc(CN2CCC/C(=C\c3cccc(Cl)c3)C2=O)cc1 | class 0
CC[O-].Cc1ccc2cccc([O-])c2n1.Cc1ccc2cccc([O-])c2n1.Cc1ccc2cccc([O-])c2n1.[Ti+4] | class 0
C=C1CCC2C3(C)COC(c4ccc(SC)cc4)OC3CCC2(C)C1C/C=C1/C(=O)OCC1O (stereo not drawn) | class 0
CCOC(=O)C1=C(C)NC2SC(=O)/C(=C\c3ccccc3)N2C1c1ccccc1 (stereo not drawn) | class 0
COc1cc2c3c(n(C)c(=O)c2cc1OC)-c1cc2c(cc1/C3=C\CCCBr)OCO2 | class 0
O=C(c1cccs1)c1c(C(F)(F)F)n([O-])c2ccc(F)cc2[n+]1=O | class 1
CC[C@@H](C(=O)[C@@H](C)[C@@H](O)[C@H](C)[C@@H]1O[C@@H]([C@@H](CC)C(=O)O)CC[C@@H]1C)[C@H]1OC2(C=C[C@@H](O)[C@]3(CC[C@@](C)([C@H]4CC[C@](O)(CC)[C@H](C)O4)O3)O2)[C@H](C)C[C@@H]1C (stereo partly drawn) | class 1
COc1cc2c3c(n(CCN(C)C)c(=O)c2cc1OC)-c1cc2c(cc1C3=O)OCO2 | class 0

* * *

- Test system: OVCAR-3 ovarian
- ASSAY REMARKS: NCI tumour cell line growth inhibition, 48 h; in the data active means GI50 below about 0.43 µM; inactive means the rest
Outcome codes: yes = active, no = inactive

COMPOUND | TARGET ENTITY | GROUP
Clc1ccc(-c2nn3ncccc3c2-c2ccnc(Nc3ccccc3)n2)cc1 | OVCAR-3 ovarian | no
COc1cccc(C2NC(=S)NC(C)=C2C(=O)Nc2ccc(F)c(Cl)c2)c1 (centres undefined) | OVCAR-3 ovarian | no
C#CCNC(=O)CC[C@]1(C)[C@H]2CC[C@@H]3[C@@H]([C@@](C)(O)CCC=C(C)C)CC[C@@]3(C)[C@]2(C)CC[C@H]1C(=C)C | OVCAR-3 ovarian | no
COc1ccc(/C=C\c2cc(OC)c(OC)c(OC)c2)cc1OC(=O)c1cccc(Cn2cc(CCOC(=O)c3cccc(Cn4nnc5c4C(=O)c4ccccc4C5=O)c3)nn2)c1 | OVCAR-3 ovarian | yes
CCOc1ccc(/C=C/[N+](=O)[O-])cc1 | OVCAR-3 ovarian | no
N#Cc1c(-c2ccccc2)cc(-c2ccccc2)n(CCCCC(=O)NO)c1=O | OVCAR-3 ovarian | no
COc1cc([C@@H]2c3cc4c(cc3[C@@H](O[C@@H]3O[C@@H]5CO[C@@H](c6cccs6)O[C@H]5[C@H](O)[C@H]3O)[C@H]3COC(=O)[C@H]23)OCO4)cc(OC)c1O | OVCAR-3 ovarian | no
CCOC(=O)C1=C(C)NC2SC(=O)/C(=C\c3ccccc3)N2C1c1ccccc1 (centres undefined) | OVCAR-3 ovarian | no
CC(=O)Nc1cc2c(cc1O)CC[C@@H]1[C@@H]2CC[C@]2(C)[C@@H](O)CC[C@@H]12 | OVCAR-3 ovarian | no

* * *

- System: U251 CNS
- ASSAY REMARKS: NCI tumour cell line growth inhibition, 48 h
A collection of compounds and their measured TGI
VALUE KIND: TGI

COMPOUND | VALUE KIND | ENDPOINT VALUE
CSc1ccc2c(cc1=O)C(NC(=O)c1ccc(OC(C)=O)cc1)CCc1cc(O)c(O)c(O)c1-2 (centres undefined) | TGI | 39 µM
CC(=O)OC1C(CCl)OC(N=[N+]=[N-])C(OC(C)=O)C1OC(C)=O (centres undefined) | TGI | > 100 µM
CN(C)CCCNc1nccc(-c2c(-c3ccc(F)cc3)nn3cc(C(F)(F)F)ccc23)n1 | TGI | > 25 µM
Clc1ccc(OC2CCO2)cc1Cl (centres undefined) | TGI | > 100 µM
CC[C@@H](C(=O)[C@@H](C)[C@@H](O)[C@H](C)CCc1ccc(C)c(O)c1C(=O)O)[C@H]1O[C@](CC)([C@H]2CC[C@](O)(CC)[C@H](C)O2)C[C@@H]1C | TGI | 6.33 µM
N#Cc1cccc(NC(=O)c2oc3ccccc3c2-c2cnn(-c3ccccc3)c2)c1 | TGI | > 500 µM
COc1ccc(-c2nn(-c3cccc(NC(=O)Nc4cc(C(F)(F)F)cc(C(F)(F)F)c4)c3)cc2-c2ccncc2)cc1Cl | TGI | 1.73 µM
COc1ccc(C2=C(c3cc(OC)c(OC)c(OC)c3)C(=O)CC2)cc1 | TGI | > 100 µM
O=C1c2nn(-c3ccccc3)nc2C(c2ccccc2)N1c1ccccc1 (centres undefined) | TGI | > 100 µM

* * *

- System: MALME-3M melanoma
- ASSAY REMARKS: NCI tumour cell line growth inhibition, 48 h

COMPOUND | TARGET ENTITY | TGI
CC(C)(C)[Si](C)(C)O/N=C\c1ccc(O[Si](C)(C)C(C)(C)C)cc1 | MALME-3M melanoma | > 100 µM
CC1=C[C@]2(CC(C)C3C(CC4(C)C5CCC6C(C)(C)C(=O)CC[C@@]67C[C@@]57CC[C@]34C)O2)OC1=O (stereo not given in full) | MALME-3M melanoma | > 100 µM
NCC(NC(=O)OCc1ccccc1)C(=O)O (stereo not given) | MALME-3M melanoma | > 50 µM
C#CCNC(=O)CC[C@]1(C)[C@H]2CC[C@@H]3[C@@H]([C@@](C)(O)CCC=C(C)C)CC[C@@]3(C)[C@]2(C)CC[C@H]1C(=C)C | MALME-3M melanoma | 35 µM
CCOC(=O)C1=C(C)NC(=O)NC1c1coc2cc(C)cc(C)c2c1=O (stereo not given) | MALME-3M melanoma | > 100 µM
Clc1ccc(-c2nn3ncccc3c2-c2ccnc(Nc3ccccc3)n2)cc1 | MALME-3M melanoma | > 25 µM
COC(=NCCC1=CCCCC1)OC | MALME-3M melanoma | > 100 µM
CN(C)CCNC(=O)c1cccc2nc3cccc(F)c3nc12 | MALME-3M melanoma | 6.35 µM
O=C1/C(=C\c2coc3ccccc3c2=O)c2ccccc2N1c1c(Cl)cccc1Cl | MALME-3M melanoma | 13 µM
CC(C)CC(=O)NC(NC(C)C)(C(F)(F)F)C(F)(F)F | MALME-3M melanoma | > 100 µM

* * *

Form field: TGI (one value per entry).
- Test system: HL-60(TB) leukemia
- ASSAY REMARKS: NCI tumour cell line growth inhibition, 48 h
VALUE KIND: TGI

COMPOUND | ENDPOINT VALUE
COc1ccc(/C=C/c2cc(N3CCOCC3)c3cc(F)c(F)cc3n2)cc1OC | 5.14 µM
CN(C)CCCNc1nnc(NCCCN(C)C)c2c(=O)c3sccc3[nH]c12 | > 28.2 µM
COc1ccc(Cc2cnc(NC(=O)c3sc4ccccc4c3Cl)s2)cc1 | 0.642 µM
O=C(NNC(=O)c1ccncc1)c1ccncc1 | > 100 µM
N#Cc1c(-c2ccccc2)cc(-c2ccccc2)n(CCCCC(=O)NO)c1=O | 6.84 µM
CC1(C)CC2C=C(C=O)C3(C=O)CC3(C)C2C1 (stereo unspecified) | > 100 µM
Cc1cccc2c(N)c3cccc(C(=O)NCCN(C)C)c3nc12 | 0.0427 µM
c1ccc2c3c([nH]c2c1)C1c2[nH]c4ccccc4c2CCN1CC3 | 66.5 µM
COc1cc2cc[n+]3c4cc(OC)c(OC)cc4c(C)cc3c2cc1OC | > 100 µM
O=C1CC(=O)c2c(Cl)sc(Cl)c21 | 85.6 µM
O=C(CCc1ccc(O)c(O)c1)NCCc1cc(OCc2ccccc2)cc(OCc2ccccc2)c1 | 7.27 µM

* * *

Measured TGI values are reported for all entries that follow.
- System: DLD-1 colon
- ASSAY REMARKS: NCI tumour cell line growth inhibition, 48 h

COMPOUND | TGI
COc1cc2cc[n+]3c4cc(OC)c(OC)cc4c(C)cc3c2cc1OC | > 100 µM
O=C(Nc1ccc(Cl)cc1)/C(Cc1cccc[n+]1[O-])=N\Nc1ccc([N+](=O)[O-])cc1[N+](=O)[O-] | > 100 µM
COc1cccc(NC(=O)CC(=O)N2NC(C)C(N=Nc3cccc(C(=O)O)c3)C2=O)c1 (stereo not given) | > 100 µM
CC1(C)CCc2cc3c(-c4ccccc4)cc(=O)oc3cc2O1 | > 100 µM
COc1ccc(/C=N/NC(=O)NCCCN(C)C)cc1 | > 100 µM
CC(C)(C)[Si](C)(C)O/N=C\c1ccc(O[Si](C)(C)C(C)(C)C)cc1 | > 100 µM
CC[C@@H](C(=O)[C@@H](C)[C@@H](O)[C@H](C)CCc1ccc(C)c(O)c1C(=O)O)[C@H]1O[C@](CC)([C@H]2CC[C@](O)(CC)[C@H](C)O2)C[C@@H]1C | 13.8 µM
N#CC(C#N)=CSc1ccccc1 | 63.3 µM
C=C(CS(=O)(=O)c1ccccc1)[P+](c1ccccc1)(c1ccccc1)c1ccccc1 | > 100 µM
COc1cc(C(C)c2cc3c(cc2OCCCCOc2cc4c(cc2C(C)c2cc(OC)c(OC)c(OC)c2)OCO4)OCO3)cc(OC)c1OC (stereo not given) | > 100 µM
